Values compiled from the NIST ThermoML archive (doi:10.1021/acs.jced.7b00035).

- test-settings: 318.15 K; 101.33 kPa; Liquid; Vibrating tube method
mass density by entry:
readout-name: mass density (kg/m3)

mol	unit-of-measure	quantitative-readout
CCCC(C)=O	kg/m3	781.83
CCC(=O)CC	kg/m3	789.41
CC(=O)CC(C)C	kg/m3	777.46
CCCCC(C)=O	kg/m3	788.45
CC(=O)C(C)C	kg/m3	778.62

====

mass density by entry:
- test-settings: 288.15 K; 101.33 kPa; Liquid; Vibrating tube method
readout-name: mass density (kg/m3)

mol	readout-name	quantitative-readout
CCC(=O)CC	mass density	818.9
CC(=O)C(C)C	mass density	808.3
CCCCC(C)=O	mass density	815.72
CCCC(C)=O	mass density	811.06
CC(=O)CC(C)C	mass density	805.12
